System: MS2 coat protein
Procedure Summary: apparent Kd, MS2 coat protein; higher = weaker binding; RNA-MaP array; FMN 200 µM where present
Test Conditions: designed as: OFF switch for flavin mononucleotide; no ligand
Binning scheme for apparent Kd: low bracket (below 10 nM), middle bracket (10 nM to below 20 nM), high bracket (20 nM or more)

UUACUUUUACAGAAGGUUUAAUAAUAUAUAAAAGAAGGAUAUGUAACAUGAGGAUCACCCAUGUUUCACCCACAUGAGGAUCAU | middle bracket
CAGAGGAUGUAAGGAUAUCGUCAGGAAUACUGACGAGAAGGUACAUGAGGAUCACCCAUGUAACUCUAAUAAUAAUAACCUCUG | middle bracket
GUAGAGUAAGGAUAUGGAGAAUAGGAUAGAAUGGUUAGAAUCUAGAAGGUACAUGAGGAUCACCCAUGUAAUGU | high bracket
GUCAGCUCGUGAGGAUAUACAUGUGCUGGAGACAGCACUAUUGAGUUCACAUGAGGAUCACCCAUGUAGAAGGCACGAGCUGAU | middle bracket
CAGCCCUGAGGAUAUCCAUCCUUGUACAUGAGGAUCACCCAUGUUUCCCUCUGGGCUUUCGGAGAAGGCAGGUAUC | high bracket
UUUUUGUGAGGAUAUCAGUAGUAAAUAAAUAAAAUAACUACUGAGAAGGCACAUGAGGAUCACCCAUGUUCUUU | middle bracket
UGAUCGAAAGAUCAUAGAUUCUGCUAGGAUAUGCAGGAGUUGCGCUUUACAUGAGGAUCACCCAUGUAGAAGGAGUAGAGUCUA | low bracket
CGAUAUAUGAAGGGCAAAGGCCCACAUGAGGAUCACCCAUGUAGAAGGCGAUCCGCAACGCGGAUCGAGGAUAUAUAGUAUACA | low bracket
CGCUAGUCAGGAUAUACGCACAUGUCACCAGACGUGAAGGGACAUGAGGAUCACCCAUGUAGAAGGGACUAGCA | high bracket
GGAUUACAUGAGGAUCACCCAUGUGAGGAUAUCGAUGUCCUGUCUUUCGUGCGGGACUCGAGAAGGCACUUGGA | high bracket
UCUGCCGCCGUGAGGAUAUGCCCGCAAAAACGCGGGCAGAAGGCACAUGAGGAUCACCCAUGUCCCGCGGUUUU | middle bracket
ACACGACAUGAGGAUCACCCAUGUGAGGAUAUCGAACUCAACUAAGCACAAAGUAACCCGAGAAGGCACACAAU | high bracket
GGUUGUCAUAGUCAUCCUUUCCGUACAUGAGGAUCACCCAUGUAGGAUAUGCUACUCAAAGAGUAGCAGAAGGGCGUGUGUCUU | middle bracket
GCACGGUAUGUAGGAUAUGCAUAGCAUUGCUAUGCAGAAGGACAUGAGGAUCACCCAUGUAUGUAUUCCAUACUAAUCCCGUGC | low bracket
